Test system: U2OS
MEASUREMENT PROTOCOL: Cytotoxicity against human U2OS cells assessed as reduction in cell viability incubated for 48 hrs by CellTiter-Blue reagent based […] assay
Format: functional
Quick list: IC50 per entry.
MEASUREMENT KIND: IC50

# MOLECULAR STRING, MEASUREMENT KIND, RESULT
measured = [
    ("Nc1ncnc2c1ncn2[C@H]1C[C@H](O)[C@@H](CN2CCOCC2)O1", "IC50", "≥ 50 µM"),
    ("Nc1nc(Cl)nc2c1ncn2[C@H]1C[C@H](O)[C@@H](COc2cc(C(=O)O)cc(C(=O)O)c2)O1", "IC50", "≥ 100 µM"),
    ("Nc1ncnc2c1ncn2[C@@H]1O[C@H](CN2CCOCC2)[C@@H](O)[C@H]1F", "IC50", "≥ 50 µM"),
    ("Nc1nc(Cl)nc2c1ncn2[C@H]1C[C@H](O)[C@@H](CN2CCOCC2)O1", "IC50", "≥ 100 µM"),
    ("Nc1ncnc2c1ncn2[C@@H]1C[C@@H](O)[C@H](C(=O)O)O1", "IC50", "≥ 50 µM"),
    ("C=C1O[C@@H](n2cnc3c(N)nc(N4CCOCC4)nc32)[C@@H](F)[C@@H]1O", "IC50", "67 µM"),
    ("Nc1ncnc2c1ncn2[C@@H]1O[C@H](CN2CCOCC2)[C@@H](O)[C@@H]1F", "IC50", "≥ 50 µM"),
    ("CS(=O)(=O)C[C@H]1O[C@@H](n2cnc3c(N)nc(Cl)nc32)[C@@H](F)[C@@H]1O", "IC50", "≥ 50 µM"),
    ("Nc1ncnc2c1ncn2[C@H]1C[C@H](O)[C@@H](C(=O)O)O1", "IC50", "≥ 50 µM"),
    ("CS(=O)(=O)C[C@H]1O[C@@H](n2cnc3c(N)nc(Cl)nc32)C[C@@H]1O", "IC50", "≥ 50 µM"),
    ("Nc1nc(Cl)nc2c1ncn2[C@@H]1O[C@H](CN2CCOCC2)[C@@H](O)[C@@H]1F", "IC50", "≥ 100 µM"),
    ("Nc1nc(-c2ccoc2)nc2c1ncn2[C@@H]1O[C@H](CO)[C@@H](O)[C@@H]1F", "IC50", "≥ 50 µM"),
    ("Nc1nc(-c2ccncc2)nc2c1ncn2[C@H]1C[C@H](O)[C@@H](CO)O1", "IC50", "≥ 50 µM"),
    ("Nc1nc(Cl)nc2c1ncn2[C@@H]1O[C@H](COc2cc(C(=O)O)cc(C(=O)O)c2)[C@@H](O)[C@@H]1F", "IC50", "≥ 100 µM"),
]

###

Quick list: IC50 per entry.
Test system: U-87 MG
MEASUREMENT PROTOCOL: Cytotoxicity against human U-87 MG cells assessed as reduction in cell viability incubated for 48 hrs by CellTiter-Blue reagent based […] assay
Format: functional, U-87MG ATCC
MEASUREMENT KIND: IC50

# MOLECULAR STRING, RESULT
data = [
    ("Nc1nc(-c2cccnc2)nc2c1ncn2[C@@H]1O[C@H](CO)[C@@H](O)[C@@H]1F", "> 400 µM"),
    ("Nc1nc(Cl)nc2c1ncn2[C@@H]1O[C@H](COC(C(=O)O)C(=O)O)[C@@H](O)[C@@H]1F", "> 400 µM"),
]
